run description: solvent given as SMILES
test parameters: in ClCCl
observed property: absorption maximum (nm)
The figure you give is taken to be in nm; do not add the unit.

Below are worked cases with known answers.
# smiles code, absorption maximum [nm]
rows = [
    ("Cc1cccc(C2=CC3=C(c4c(C)cc(C)cc4C)c4cc(-c5cccc(C)c5)c(-c5cccc(C)c5)n4[B-](F)(F)[N+]3=C2c2cccc(C)c2)c1", 573),
    ("COc1ccc(C#Cc2c3ccccc3c(C#Cc3ccc(OC)cc3)c3cc4ccccc4cc23)cc1", 559),
    ("CCN1C(=CC2=C([O-])C(=CC3=[N+](CC)c4ccccc4C3(C)C)C2=O)C(C)(C)c2ccccc21", 637),
]

Entry COc1c2ccccc2c(OC)c2c1c1ccc(C)cc1n2C has what absorption maximum?
405

Give the measured absorption maximum of CCCCCCCCCCC1(CCCCCCCCCC)c2cc(-c3nc4ccccc4s3)ccc2-c2ccc(N3C(=O)c4ccc5c6ccc7c8c(ccc(c9ccc(c4c59)C3=O)c86)C(=O)N(c3ccc4c(c3)C(CCCCCCCCCC)(CCCCCCCCCC)c3cc(-c5nc6ccccc6s5)ccc3-4)C7=O)cc21 .
528

# input compound: CN(C)c1ccc(/C=C/c2cc[n+](C)c3ccccc23)cc1 ; wanted: its absorption maximum
581

So what does the record say about absorption maximum for Cc1cc2c3ccccc3[nH]c2c2[nH]c3ccccc3c12 ?
323

May I ask what absorption maximum has been recorded for CCCSC1=[N+]2C(=C(c3ccccc3)c3ccc(SCCC)n3[B-]2(F)F)C=C1 ?
579

====

run description: solvent given as SMILES
test parameters: in ClCCl
Entries annotated with measured absorption maximum
Kindly answer with a numeric value in nm, unit omitted.

# annotated cases, reported absorption maximum shown
# molecule, absorption maximum, nm
rows = [
    ("COC(=O)C1=C(C(=O)OC)C2(c3ccccc3-c3c(C(=O)OC)cccc32)[C@@H](c2ccc(Cl)cc2)C=C2c3cc(OC)c(OC)cc3CCN21 (some centres undefined)", 311),
    ("COc1ccc(N(c2ccc(OC)cc2)c2ccc(-c3ccc4nc5ccccc5c(=O)n4c3)cc2)cc1", 361),
    ("CC(C)(C)NC(=O)c1ccc(C(=O)NC(C)(C)C)c2c1c1c3ccc(Cl)cc3c3cc(Cl)ccc3c1c1c3ccc(Cl)cc3c3cc(Cl)ccc3c21", 395),
    ("O=S1(=O)c2ccccc2C2(c3cc(-c4ccc(N(c5ccccc5)c5ccccc5)cc4)ccc3-c3ccc(-c4ccc(N(c5ccccc5)c5ccccc5)cc4)cc32)c2ccccc21", 380),
    ("Cn1c(=O)cc(C(=O)c2ccccc2)c2sc(-c3ccc(C(F)(F)F)cc3)cc21", 398),
]

Recorded absorption maximum for N#CC(C#N)=Cc1ccc2c(c1)[nH]c1c3ccccc3ccc21 , please?
436

# input molecule: COc1cccc(OC)c1-c1c2ccc(=[N+]3CCCCC3)cc-2oc2cc(N3CCCCC3)ccc12 ; wanted: its absorption maximum
565

// returns reported absorption maximum for input CCCCCCC1(CCCCCC)c2cc(-c3ccc(-c4ccc(-c5ccc(-c6ccc7c(c6)C(CCCCCC)(CCCCCC)c6cc(-n8c9ccc(-n%10c%11ccccc%11c%11ccccc%11%10)cc9c9cc(-n%10c%11ccccc%11c%11ccccc%11%10)ccc98)ccc6-7)s5)c5nsnc45)s3)ccc2-c2ccc(-n3c4ccc(-n5c6ccccc6c6ccccc65)cc4c4cc(-n5c6ccccc6c6ccccc65)ccc43)cc21
514

Please report the recorded absorption maximum for CC(C)[Si](C#Cc1ccc(C#C[Si](C(C)C)(C(C)C)C(C)C)c2nc3ccccc3nc12)(C(C)C)C(C)C .
439

Name the recorded absorption maximum for O=Cc1ccc(N(c2ccc(C=O)cc2)c2ccc(-c3ccc4c(c3)C(=O)c3ccccc3C4=O)cc2)cc1 .
379

absorption maximum for Cn1c(=O)c(/N=N/c2ccc(/N=N/c3ccc(S(=O)(=O)O)cc3)cc2)c(O)c2ccccc21 ?
457
